Tested on: HIV-1 NL4.3 or IIIB
Experiment: Inhibition of HIV-1 (NL4.3 or IIIB, CXCR4 using) replication in MT-4 cells, MTT viability
Format: cell-based
Conditions: Human immunodeficiency virus 1, IIIB, MT4, concentration protecting 50% of virus-infected cells against viral cytopathicity
result.type: EC50

// below: answered compounds
{"columns": ["compound", "EC50"],
 "data": [
  ["COc1cc(CNCc2ccc(CN(Cc3nc4ccccc4[nH]3)C3CCCc4cccnc43)cc2)nc2ccccc12 (stereo not shown) [Example 64]", "< 20 µg/mL"],
  ["c1ccc(N[C@H]2CCCC[C@H]2NCc2ccc(CNCc3ccccn3)cc2)cc1 (relative stereo) [Example 132]", "< 20 µg/mL"],
  ["c1ccc(-c2cnc(CN(Cc3ccc(CNCc4ccccn4)cc3)C3CCCc4cccnc43)[nH]2)cc1 (stereo not shown) [Example 25]", "< 20 µg/mL"]
]}

Now for the compound whose EC50 we want.
Req: Value lookup for EC50; key = FC(F)(F)c1ccc2nc(CN(Cc3ccc(CNCc4ccccn4)cc3)C3CCCc4cccnc43)[nH]c2c1 (stereo not shown) [Example 1]
Resp: < 20 µg/mL

* * *

System: HIV-1 NL4.3 or IIIB
Assay: Inhibition of HIV-1 (NL4.3 or IIIB, CXCR4 using) replication in MT-4 cells, MTT viability
Assay type: cell-based
Conditions: Human immunodeficiency virus 1, IIIB, MT4, concentration protecting 50% of virus-infected cells against viral cytopathicity
result.type: EC50

// below: answered compounds
{"columns": ["compound", "EC50"],
 "data": [
  ["COc1ccc(OC)c2[nH]c(CN(Cc3ccc(CNCc4ccccn4)cc3)C3CCCc4cccnc43)nc12 (stereo not shown) [Example 15]", "< 20 µg/mL"],
  ["O=[N+]([O-])c1ccc(-c2cnc(CN(Cc3ccc(CNCc4ccccn4)cc3)C3CCCc4cccnc43)[nH]2)cc1 (stereo not shown) [Example 27]", "< 20 µg/mL"],
  ["c1ccc(N[C@H]2CCCC[C@@H]2N(Cc2ccc(CNCc3ccccn3)cc2)Cc2nc3ccccc3[nH]2)cc1 [Example 131]", "< 20 µg/mL"]
]}

Req: Value lookup for EC50; key = FC(F)(F)c1c[nH]c(CN(Cc2ccc(CNCc3ccccn3)cc2)C2CCCc3cccnc32)n1 (stereo not shown) [Example 35]
Resp: < 20 µg/mL
